Tested on: human skin tissue
Assay: Penetration rate of AI compound in AI-helper composition through human skin in vitro, modified Franz cells
Assay type: in vitro ADME
Settings: no tryptophan ester (None); AI compound 0.5 % w/v in water; 25 °C
Items are presented alongside their recorded Skin penetration rate of AI compound.
Note: unit μg/cm^2/h is implicit; provide only the numeric part.

# example entries with known answers
> print(dat)
                              line.notation     assayed.system  result.number
1                     Cc1ncc(CO)c(CO)c1O.Cl  human skin tissue          0.059
2              Oc1ccc(C=Cc2cc(O)cc(O)c2)cc1  human skin tissue          0.017
3  CC1=C(/C=C/C(C)=C/C=C/C(C)=C/C=C/C=C(C)/C=C/C=C(C)/C=C/C2=C(C)CCCC2(C)C)C(C)(C)CCC1  human skin tissue          0.009

Next up:
Challenge: # get_value(readout='Skin penetration rate of AI compound', item= CC1=C(/C=C/C(C)=C/C=C/C(C)=C/C=C/C=C(C)/C=C/C=C(C)/C=C/C2=C(C)C(=O)[C@@H](O)CC2(C)C)C(C)(C)C[C@H](O)C1=O )
Response given: 0.012
